- study system: SARS-CoV-2-S1 (RBD)-His protein (Trenzyme) (SARS-CoV-2, UniProt P0DTC2 319-541)
- method notes: direct ELISA on coated RBD-His
parameter measured: pEC50
Answers are plain numbers, as −log10 of the molar value.

**Query** Identify pEC50 associated with the binder NI-607.532_F9 (antibody, V domains shown) VH: EVQLVESGGNLIQPGGSLRLSCAASGFTVSSNYMSWVRQAPGKGLEWVSVIYSGGSTYYADSVKGRFTISRDNSRNTLYLQMNSLRAEDTAVYFCARDRVVRGVRGNGMDVWGQGTTVTVSS VL: AIRMTQSPSSLSASVGDRVTITCQASQDINIYLNWYQQRPGKAPKLLIYDASNLETGVPSRFSGSGSGTDFTFTISSLQPEDIATYYCHQYDNLPRTFGQGTKVDIK
**Result** 11.60

Just for reference, patent US20230242624A1 is where these values come from.
